Reference for the values: patent US8575158B2

- assayed-target: hCRTH2 receptor (Homo sapiens, UniProt Q9Y5Y4)
- Construct: expressed in transfected cells; host or cells: HEK293
- Sequence (Q9Y5Y4 whole entry): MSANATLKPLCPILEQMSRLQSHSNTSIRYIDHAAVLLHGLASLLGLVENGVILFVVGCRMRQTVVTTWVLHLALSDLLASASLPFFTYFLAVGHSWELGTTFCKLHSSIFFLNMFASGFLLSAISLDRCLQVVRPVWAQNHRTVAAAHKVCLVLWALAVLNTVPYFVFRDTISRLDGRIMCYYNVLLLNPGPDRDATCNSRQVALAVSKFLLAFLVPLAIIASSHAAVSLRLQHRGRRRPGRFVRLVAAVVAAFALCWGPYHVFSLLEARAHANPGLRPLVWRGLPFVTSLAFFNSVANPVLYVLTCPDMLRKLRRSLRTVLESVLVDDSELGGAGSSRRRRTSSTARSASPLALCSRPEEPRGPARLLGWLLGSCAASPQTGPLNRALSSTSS
- assay-explanation: Radioligand displacement assay (3H-PGD2) on hCRTH2 receptor membranes
- Format: binding
- condition-parameters: antagonistic activity; 3H-PGD2 displacement on HEK293-hCRTH2 membrane fragments
measurement-type: pIC50
Friendly reminder that pIC50 comes from taking -log10 of the concentration in mol/L.

Below are worked cases with known answers.
{"columns": ["molecule", "assayed-target", "measurement-type", "reported-measurement"],
 "data": [
  ["O=C(O)COc1ccc(Cl)cc1C1c2ccccc2CCN1C(=O)OCc1ccccc1Br (racemic) [Example 227]", "hCRTH2 receptor (Homo sapiens, UniProt Q9Y5Y4)", "pIC50", 8.14],
  ["Cn1ccc(COC(=O)N2CCc3ccccc3C2c2cc(Cl)ccc2OCC(=O)O)n1 (racemic) [Example 263]", "hCRTH2 receptor (Homo sapiens, UniProt Q9Y5Y4)", "pIC50", 8.10],
  ["N#Cc1ccc(OCC(=O)O)c(C2c3cc(F)c(F)cc3CCN2C(=O)OCc2ccccc2)c1 (racemic) [Example 11]", "hCRTH2 receptor (Homo sapiens, UniProt Q9Y5Y4)", "pIC50", 7.88]
]}

Identify the reported pIC50 for the following entry. O=C(O)COc1ccc(F)cc1C1c2ccccc2CCN1C(=O)COCc1ccccc1Cl (racemic) [Example 150]
8.21
